Target: SYK(S550F) (Homo sapiens, UniProt P43405, S550F)
Construct: The full-length SYK GoF variants SYK(S550F) and SYK(P342T) along with SYK(WT) were purified from insect cells (Sf9); 6His (N, cleaved yes); GST (N, cleaved yes)
Assay: PhosphoSens SOX peptide kinase activity assay, SYK(S550F)
Conditions: purified protein, 1 mM ATP
readout_name: pIC50
One number for each entry, as −log10 of the molar value.

Noted for Cc1cc(Nc2nccc(C)n2)cc(-c2cnc([C@@]3(O)CC[C@H](C(=O)O)C(C)(C)C3)s2)c1 : its pIC50 reads 7.20

---

Target: SYK(P342T)-NL (Homo sapiens, UniProt P43405, P342T)
Assay: NanoBRET cellular target engagement assay in intact live HEK293 cells, SYK(P342T)-NL
Conditions: linearized Cheng-Prusoff analysis, y-intercept, tracer 8, single experiment; read-out: KD, app SYK(P342T)
readout_name: pKd
Answers are plain numbers, as −log10 of the molar value.

Field pKd (SYK(P342T)-NL (Homo sapiens, UniProt P43405, P342T)), entry Cc1cc(Nc2nccc(C)n2)cc(-c2cnc([C@@]3(O)CC[C@H](C(=O)O)C(C)(C)C3)s2)c1 [MRL-SYKi] : 6.75

// data source = paper PMC13089524
